Documented apparent KD of MS2 coat protein across a set of sequences
test system: MS2 coat protein; test: apparent KD of MS2 coat protein; higher = weaker reporter binding; conditions: Eterna round: R107; input ligand: theophylline 2 mM
Write the value in nM as a bare number.

Sample answers from the record:
Problem: Looking for the measured apparent KD of MS2 coat protein of GAUCCGUACCAGACCUUCAAUGGACUCAGUCGAGGACCGGUACGGCCGCCACUCGGAGAAGAACAUGAGGAUCACCCAUGUGAUG [theeternabot_exclusion_MS2_Trp_A_36] , can you help?
Result: 34.9

Problem: Please give the result for AAUAGACAUGAGGAUCACCCAUGUAUGGAAGGAGCGGUGAAUAAGCCAGGUAGGUCGCCAGUGUGAGGGUUAUCUAUGUAAUAAA [#19 Exclusion - Arginine A] too.
Result: 35.7

Problem: Please give the result for GAGCUCGUGGACUGGCGUGCUCCGCUCCGUCGAGGACCGGUACGGCCGCCACUCGACAUGAGGAUCACCCAUGUGCGAGCUCGCU [#1 Exclusion - Tryptophan A Attempt #22 (HarryS)] too.
Result: 117

More entries:
Problem: Looking for the measured apparent KD of MS2 coat protein of GGGUGUGAUCCGGAUACCAGCGAACAUGAGGAUCACCCAUGUGACCUGAGAUCGGCUCUACGCCCUUGGCAGCCGCGAUCGCAGG [Same State Theophylline B GF12] , can you help?
Result: 37.9

Problem: Please give the result for GAAGGAGAGUGAUCCACUCCUUCUCUGGAAGGAGCGAGCGAAAGCUCAGGUAGGUCGCCAGAAACAUGAGGAUCACCCAUGUAAU [(A)''-(M)'-(A)'-(Arg1)-(Arg2)-(M1)-(M2)_Design7] too.
Result: 123

Problem: Please give the result for GUCCACAGCCGAAGGAGCGCUAGAAGAUGACAUGAGGAUCACCCAUGUGUGUGGUGUGGCUAGCAGGUAGGUCGCGGAGUGGAUU [Exclusion - Arginine B (Freestyle 15)] too.
Result: 39

Problem: Please give the result for UUAAUCUUGGUUGAAAACAAUUAAGCAGAAGGAGCGUGAUAAAACACAGGUAGGUCGCUGAAGGGAACAUGAGGAUCACCCAUGU [AstrosSSArgA#14] too.
Result: 31.6

Problem: Please give the result for AAAAUCCUACCUGAGGAUCACCCUGGUGAAGGAGCGCCCGAAAGGGCAGGUAGGUCGCACCUGAGGAUCACCCUGGUACCUAAAA [ArgAX 29 #DoubleMs2 #OpenEnded #AlternativeMS2] too.
Result: 48.3

Problem: Please give the result for GUAAAGUAAAGAAGGAGCGUCGAAAAUGGGUAAACAUGAGGAUCACCCAUGUAAAGGGAACGACAGGUAGGUCGCUUUAUUUUAC [AstromonsSSArgB#17] too.
Result: 284
